Catalogue of IC50 readings, one per entry.
test system: Kras and SOS1 (biotin-tagged human Kras loaded with GDP, His-tagged human SOS1) (Homo sapiens, UniProt P01116, G12D)
Construct: made in house; host or cells: E. coli (stated for Kras only)
Sequence (P01116 1-188 isoform P01116-2 G12D): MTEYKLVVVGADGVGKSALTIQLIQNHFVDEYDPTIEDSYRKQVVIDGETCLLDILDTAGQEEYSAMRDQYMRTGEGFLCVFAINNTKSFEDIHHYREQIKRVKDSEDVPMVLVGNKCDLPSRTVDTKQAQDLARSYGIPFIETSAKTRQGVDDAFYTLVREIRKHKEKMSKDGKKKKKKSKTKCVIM
test summary: Protein-protein interaction inhibition between Kras and SOS1 (KrasGl2D-SOS PPI) using AlphaScreen
Format: binding
condition: AlphaScreen; biotin-tagged human Kras loaded with GDP, His-tagged human SOS1; read-out: KRAS G12D-SOS PPI IC50
Starred links: 1 amine or outer side, 2 acyl side, 3 side chain; linkers in the order of their positions; H or OH if unused. Positions of bridges follow the written chain, without caps; N, C: chain ends. Non-standard residues stand in square brackets, D forms with d. Residues, ends and D or L forms follow the SMILES beside them. *: point of attachment. hPhe(3-Cl-4-CF3) = N[C@@H](CCc1ccc(C(F)(F)F)c(Cl)c1)C(=O)O; NMePhe(4-F) = CN[C@@H](Cc1ccc(F)cc1)C(=O)O; NMedβ3hAla = C[C@H](CC(=O)[*:2])N(C)[*:1]; NMeGly(cBu) = CN[C@H](C(=O)O)C1CCC1; NMeCha = CN[C@@H](CC1CCCCC1)C(=O)O; Gly(cPr) = N[C@H](C(=O)O)C1CC1; NMeD = CN[C@@H](CC(=O)O)C(=O)O; NMeL = CN[C@@H](CC(C)C)C(=O)O; NMeV = CN[C@H](C(=O)O)C(C)C; NMeA = CN[C@@H](C)C(=O)O; Piperidide = C1CCN(*)CC1; dNMeA = CN[C@H](C)C(=O)O; Ac5c = NC1(C(=O)O)CCCC1; Sar = CNCC(=O)O
State the answer as a number, implicitly in nM.

Known results for compounds:
CC[C@H](C)[C@@H]1NC(=O)[C@H](C)N(C)C(=O)C[C@@H](C(=O)N2CCCCC2)N(C)C(=O)[C@H](C(C)C)N(C)C(=O)C2(CCCC2)NC(=O)[C@@H]2CCCN2C(=O)[C@H](CCc2ccc(C(F)(F)F)c(Cl)c2)NC(=O)[C@@H](C)N(C)C(=O)[C@H](Cc2ccc(F)cc2)N(C)C(=O)[C@@H]2CCCN2C(=O)CN(C)C1=O [Compound 1853] ([NMeA]I[Sar]P[NMePhe(4-F)][dNMeA][hPhe(3-Cl-4-CF3)]P[Ac5c][NMeV][NMeD]-Piperidide; lactam N-11): 8.9
CC[C@H](C)[C@@H]1NC(=O)[C@H](CC(C)C)N(C)C(=O)C[C@@H](C)N(C)C(=O)[C@H](C2CCC2)N(C)C(=O)C2(CCCC2)NC(=O)[C@@H]2CCCN2C(=O)[C@H](CCc2ccc(C(F)(F)F)c(Cl)c2)NC(=O)CN(C)C(=O)[C@H](CC2CCCCC2)N(C)C(=O)CN(C)C(=O)CN(C)C1=O [Compound 845] (cyclo([Ac5c][NMeGly(cBu)][NMedβ3hAla][NMeL]I[Sar][Sar][NMeCha][Sar][hPhe(3-Cl-4-CF3)]P)): 8.2

// next entry
Query :: Report IC50 for CC(C)C[C@H]1C(=O)N[C@@H](C2CC2)C(=O)N(C)CC(=O)N(C)CC(=O)N(C)[C@@H](CC2CCCCC2)C(=O)N(C)CC(=O)N[C@@H](CCc2ccc(C(F)(F)F)c(Cl)c2)C(=O)N2CCC[C@H]2C(=O)NC2(CCCC2)C(=O)N(C)[C@@H](C(C)C)C(=O)N(C)[C@H](C(=O)N2CCCCC2)CC(=O)N1C [Compound 533] ([NMeL][Gly(cPr)][Sar][Sar][NMeCha][Sar][hPhe(3-Cl-4-CF3)]P[Ac5c][NMeV][NMeD]-Piperidide; lactam N-11) please.
Result :: 8.5

All values here come from patent US12371454B2.
